Target: Delta-type opioid receptor (Mus musculus, UniProt P32300)
Sequence (P32300 whole entry): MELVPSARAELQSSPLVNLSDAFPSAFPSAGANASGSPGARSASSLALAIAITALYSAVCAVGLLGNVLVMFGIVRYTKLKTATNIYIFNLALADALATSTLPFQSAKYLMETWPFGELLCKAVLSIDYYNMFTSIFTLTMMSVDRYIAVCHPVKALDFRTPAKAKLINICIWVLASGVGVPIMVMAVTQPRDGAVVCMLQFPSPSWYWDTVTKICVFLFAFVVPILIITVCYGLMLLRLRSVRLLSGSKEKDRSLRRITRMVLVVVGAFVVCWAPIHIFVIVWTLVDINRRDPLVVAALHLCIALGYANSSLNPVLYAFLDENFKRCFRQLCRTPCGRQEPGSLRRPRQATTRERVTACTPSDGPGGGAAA
Assay: Evaluated for inhibitory activity against Opioid receptor delta 1 of mouse vas deferens (MVD).
pIC50: −log10 of the molar value.
Label yes when pIC50 is at or above 8; otherwise label no.

[Q] API: above_or_equal(metric=pIC50, cutoff=8) for item CN[C@@H](Cc1ccc(O)cc1)C(=O)NCC(=O)NNC(=O)N[C@@H](Cc1ccccc1)C(=O)N[C@@H](CC(C)C)C(=O)N[C@@H](CCCNC(=N)N)C(=O)N[C@@H](CCCNC(=N)N)C(=O)N[C@H](CC(C)C)C(N)=O
[A] no

[Q] API: above_or_equal(metric=pIC50, cutoff=8) for item CN[C@@H](Cc1ccc(O)cc1)C(=O)NCC(=O)NCC(=O)N[C@@H](Cc1ccccc1)C(=O)N[C@@H](CC(C)C)C(=O)N[C@@H](CCCNC(=N)N)C(=O)N(C)[C@@H](CCCNC(=N)N)C(=O)N[C@H](CC(C)C)C(N)=O
[A] yes

[Q] API: above_or_equal(metric=pIC50, cutoff=8) for item CN[C@@H](Cc1ccc(O)cc1)C(=O)NCC(=O)NCC(=O)N[C@H](Cc1ccccc1)C(=O)N[C@H](CC(C)C)C(=O)N[C@@H](CCCNC(=N)N)C(=O)N[C@@H](CCCNC(=N)N)C(=O)N[C@@H](CC(C)C)C(N)=O
[A] no

[Q] API: above_or_equal(metric=pIC50, cutoff=8) for item CCNC(=O)[C@@H](CC(C)C)NC(=O)[C@H](CCCNC(=N)N)NC(=O)[C@H](CCCNC(=N)N)NC(=O)[C@H](CC(C)C)NC(=O)[C@H](Cc1ccccc1)NC(=O)CNC(=O)CNC(=O)[C@H](Cc1ccc(O)cc1)NC
[A] yes

[Q] API: above_or_equal(metric=pIC50, cutoff=8) for item CN[C@@H](Cc1ccc(O)cc1)C(=O)NCC(=O)NCC(=O)N[C@@H](Cc1ccccc1)C(=O)N[C@H](C)C(=O)N[C@@H](CCCNC(=N)N)C(=O)N[C@@H](CCCNC(=N)N)C(=O)N[C@H](CC(C)C)C(N)=O
[A] no

[Q] API: above_or_equal(metric=pIC50, cutoff=8) for item CCNC(=O)[C@@H](CC(C)C)NC(=O)[C@H](CCCN=C(N)N)N(C)C(=O)[C@H](CCCN=C(N)N)NC(=O)[C@@H]1CSSC[C@@H](NC(=O)[C@@H](N)Cc2ccc(O)cc2)C(=O)NCC(=O)N[C@@H](Cc2ccccc2)C(=O)N1
[A] yes

This collection of values is drawn from ChEMBL document CHEMBL1124934.
